Each recorded value in this set is attributed to the supplement of paper PMC10567573.

B1: HSP90AB1 (parent)
chain: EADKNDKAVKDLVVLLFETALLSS

# Variants of: B1
# assay_text: protein stability index of a GFP-peptide fusion (GPS, HEK-293T) (PSI 1-6); higher = more stable;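 also: lentivirally expressed fusions sorted by FACS into six bins by GFP to DsRed ratio, PSI derived from sequencing read proportions per bin multiplied by bin number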
# run_conditions: c terminus: a fixed tail appended
# protein stability index per entry
recorded_endpoint: protein stability index

* E1L | 2.02
* L15Y | 2.04
* S23P | 1.96
* D3V | 2.02
* A8G | 1.97
* D11Q | 1.97
* S23N | 1.96
* V13E | 3.74
* F17E | 4.22
* A2K | 1.68
* K7T | 1.84
* K4D | 2.13
* D6C | 2.48
* V14W | 1.92
* K4Q | 2.09
* E1K | 1.61
* L22M | 1.86
* L12Y | 2.16
* V13Q | 4.08
* D6A | 2.51
* A20T | 1.99
* S23R | 2.54
* L12V | 2.1
* L22Y | 1.5
* T19C | 2.54
* L21G | 2.58
* L22S | 2.7
* N5P | 1.59
* K10H | 2.38
* N5A | 2.57
* A8K | 1.94
* L16V | 2.16
* K7Y | 2.79
* K7W | 3.3
* L22H | 2.18
* L16N | 4.05
* A2P | 1.79
* S24Q | 1.67
* V14M | 1.61
* V9Q | 1.7
* K4C | 1.87
* N5I | 1.9
* L15T | 2.71
* D11M | 1.65
* F17M | 2.1
* N5T | 2.43
* L21C | 2.14
* K7N | 1.95
* K4G | 1.34
* S24C | 1.4
* D3L | 1.86
